EXPERIMENTAL_TARGET: 5-HT1D receptor (Homo sapiens)
Construct: expressed in transfected cells
Sequence (P28221 whole entry): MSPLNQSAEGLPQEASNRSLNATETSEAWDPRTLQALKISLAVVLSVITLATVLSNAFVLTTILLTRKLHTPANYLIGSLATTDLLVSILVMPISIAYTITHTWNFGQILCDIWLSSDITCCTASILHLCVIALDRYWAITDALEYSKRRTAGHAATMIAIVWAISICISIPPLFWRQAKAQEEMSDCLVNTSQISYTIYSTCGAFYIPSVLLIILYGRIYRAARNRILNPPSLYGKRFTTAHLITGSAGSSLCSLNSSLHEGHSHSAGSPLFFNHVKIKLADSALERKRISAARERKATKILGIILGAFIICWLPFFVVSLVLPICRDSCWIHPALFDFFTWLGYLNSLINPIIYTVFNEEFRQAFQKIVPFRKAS
RUN_DESCRIPTION: Binding affinity, 3H-serotonin displacement from membranes of cells expressing 5-HT1D
MEASUREMENT_CONTEXT: binding of radioligand inhibited in the presence of 100 nM of test compound; 3H-serotonin 1 nM; read-out: percent inhibition at the 5-HT1D receptor
MEASURE: inhibition at 0.1 µM

CCN(CC)CCn1ncc2ccc(C3CCSCC3)cc21 [Example 16d]: > 75%

Entry CCN(CC)CCn1ncc2ccc(-c3cc4ccccc4o3)cc21 [Example 10o] : reported inhibition at 0.1 µM = ? > 50%

Consider the compound CCN(CC)CCn1ccc2ccc(-c3cccnc3)cc21 [Example 10dd] and give its measured inhibition at 0.1 µM. > 75%

Entry CN(C)CCn1ccc2ccc(-c3cccnc3)cc21 [Example 10w] has what inhibition at 0.1 µM? > 90%

Can you share its inhibition at 0.1 µM? I mean this compound: c1cc(-c2ccc3cnn(CCN4CCCC4)c3c2)cs1 > 75%

Suppose we examine the compound CN(C)CCn1ncc2ccc(-c3ccncc3)cc21 ; what inhibition at 0.1 µM value has been reported? > 75%

// inhibition at 0.1 µM lookup, key: c1cc(-c2ccc3cnn(CCNC4CC4)c3c2)cs1 > 75%

Name the recorded inhibition at 0.1 µM for CCN(CC)CCn1ncc2ccc(-c3cccnc3)cc21 [Example 10h] . > 75%

# inhibition at 0.1 µM lookup, item CN(C)CCn1ccc2ccc(-c3ccccn3)cc21 [Example 12b] > 50%

Fill in the blank: the reported inhibition at 0.1 µM of CN(C)CCn1ncc2ccc(-c3ccsc3)cc21 [Example 10b] is ____. > 90%
